molecular target: hPPARγ (Homo sapiens); assay: PPAR transactivation assay, human chimeric PPAR/Gal4 reporter luciferase system in Cos-7 cells (PPARγ); conditions: human PPARγ/Gal4, Cos-7 cells, concentration range 0.001-10 µmol/L; NA: not active
Sequence (P37231 238-505): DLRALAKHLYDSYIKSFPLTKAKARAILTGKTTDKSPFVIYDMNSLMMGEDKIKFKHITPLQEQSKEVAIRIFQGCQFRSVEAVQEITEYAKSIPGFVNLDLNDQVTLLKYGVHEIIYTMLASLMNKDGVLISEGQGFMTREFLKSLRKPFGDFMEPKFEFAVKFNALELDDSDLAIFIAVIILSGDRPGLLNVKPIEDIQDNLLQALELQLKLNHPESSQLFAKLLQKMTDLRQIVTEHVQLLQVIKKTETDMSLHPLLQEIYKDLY
For each record, write down the corresponding pEC50.
Give bare numbers, as −log10 of the molar value.

compound: CCOC(=O)CC/C(C)=C/Cc1cc2cc(OCc3ccccc3)ccc2nc1C
experimental-system: hPPARγ (Homo sapiens)
pEC50: 6.00

compound: C/C(=C\CCC1CCc2cc(OCc3ccccc3)ccc2N1C)CCC(=O)O (stereo not shown)
experimental-system: hPPARγ (Homo sapiens)
pEC50: 5.41

compound: CCOC(=O)CC/C(C)=C/CC1Cc2cc(OCc3ccccc3)ccc2N(C)C1C (stereo not shown)
experimental-system: hPPARγ (Homo sapiens)
pEC50: 4.77

compound: C/C(=C\CC1Cc2cc(OCc3ccccc3)ccc2N(C)C1C)CCC(=O)O (stereo not shown)
experimental-system: hPPARγ (Homo sapiens)
pEC50: 5.77

compound: C/C(=C\CCc1ccc2cc(OCc3ccccc3)ccc2n1)CCC(=O)O
experimental-system: hPPARγ (Homo sapiens)
pEC50: 5.48

Please go through the list and note pEC50 for each compound.
1. CCOC(=O)CC/C(C)=C/CCC1CCc2cc(OCc3ccccc3)ccc2N1C (stereo not shown)
2. C/C(=C\Cc1cc2cc(OCc3ccccc3)ccc2nc1C)CCC(=O)O

1: 5.57; 2: 6.05

====

Biological target: hPPARβ/δ (Homo sapiens, UniProt Q03181)
Sequence (Q03181 171-441): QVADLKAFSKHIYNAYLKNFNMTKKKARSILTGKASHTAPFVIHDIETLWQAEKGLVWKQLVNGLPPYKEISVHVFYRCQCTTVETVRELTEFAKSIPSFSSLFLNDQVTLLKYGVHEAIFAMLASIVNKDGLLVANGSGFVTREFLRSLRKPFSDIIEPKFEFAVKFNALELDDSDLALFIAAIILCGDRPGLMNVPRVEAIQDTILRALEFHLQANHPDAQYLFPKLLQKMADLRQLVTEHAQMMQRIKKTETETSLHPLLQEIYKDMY
Assay: PPAR transactivation assay, human chimeric PPAR/Gal4 reporter luciferase system in Cos-7 cells (PPARβ/δ)
Conditions: human PPARβ/δ/Gal4, Cos-7 cells, concentration range 0.001-10 µmol/L; NA: not active
For each record, write down the corresponding EC50.
Answers are plain numbers, in µM.

molecule: CCOC(=O)CC/C(C)=C/CCC1CCc2cc(OCc3ccccc3)ccc2N1C (stereo not drawn) [Compound 5a]
measure: EC50
assay-result: 2.6

Please go through the list and note EC50 for each molecule.
1. C/C(=C\Cc1cc2cc(OCc3ccccc3)ccc2nc1C)CCC(=O)O [Compound 9b]
2. C/C(=C\CCC1CCc2cc(OCc3ccccc3)ccc2N1C)CCC(=O)O (stereo not drawn) [Compound 6a]

1: 5.1; 2: 4.6

====

molecular target: hPPARα (Homo sapiens, UniProt Q07869); assay: PPAR transactivation assay, human chimeric PPAR/Gal4 reporter luciferase system in Cos-7 cells (PPARα); format: cell-based; conditions: COS-7; read-out: Efficacy (%) at 10 µmol/L PPARα
Sequence (Q07869 167-468): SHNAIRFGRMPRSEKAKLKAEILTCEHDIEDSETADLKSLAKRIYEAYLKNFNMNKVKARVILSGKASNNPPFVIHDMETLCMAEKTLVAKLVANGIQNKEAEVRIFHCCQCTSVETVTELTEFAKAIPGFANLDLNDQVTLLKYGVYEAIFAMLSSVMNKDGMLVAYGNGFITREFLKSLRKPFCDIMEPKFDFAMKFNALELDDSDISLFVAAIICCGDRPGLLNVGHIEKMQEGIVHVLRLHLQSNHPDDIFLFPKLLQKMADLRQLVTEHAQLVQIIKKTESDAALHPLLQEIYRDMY
For each record, write down the corresponding Emax at 10 µM.
One number for each entry, in %.

compound: C/C(=C\CCC1CCc2cc(OCc3ccccc3)ccc2N1C)CCC(=O)O (centres unmarked)
unit-tag: %
assay-result: 144

Please go through the list and note Emax at 10 µM for each compound.
1. CCOC(=O)CC/C(C)=C/CC1Cc2cc(OCc3ccccc3)ccc2N(C)C1C (centres unmarked)
2. C/C(=C\CCc1ccc2cc(OCc3ccccc3)ccc2n1)CCC(=O)O
3. CCOC(=O)CC/C(C)=C/CCc1ccc2cc(OCc3ccccc3)ccc2n1
4. CCOC(=O)CC/C(C)=C/Cc1cc2cc(OCc3ccccc3)ccc2nc1C
5. CCOC(=O)CC/C(C)=C/CCC1CCc2cc(OCc3ccccc3)ccc2N1C (centres unmarked)
6. C/C(=C\Cc1cc2cc(OCc3ccccc3)ccc2nc1C)CCC(=O)O
7. C/C(=C\CC1Cc2cc(OCc3ccccc3)ccc2N(C)C1C)CCC(=O)O (centres unmarked)

1: 328; 2: 104; 3: 210; 4: 221; 5: 76; 6: 218; 7: 461

====

molecular target: UniProtKB Q07869; assay: PPAR transactivation assay, human chimeric PPAR/Gal4 reporter luciferase system in Cos-7 cells (PPARα)
For each record, write down the corresponding EC50.
Give bare numbers, in nM.

compound: C/C(=C\CC1Cc2cc(OCc3ccccc3)ccc2N(C)C1C)CCC(=O)O (centres unmarked)
measure: EC50
assay-result: 1300
--
compound: CCOC(=O)CC/C(C)=C/CCC1CCc2cc(OCc3ccccc3)ccc2N1C (centres unmarked)
measure: EC50
assay-result: 3600
--
compound: C/C(=C\Cc1cc2cc(OCc3ccccc3)ccc2nc1C)CCC(=O)O
measure: EC50
assay-result: 1800
--
compound: CCOC(=O)CC/C(C)=C/CCc1ccc2cc(OCc3ccccc3)ccc2n1
measure: EC50
assay-result: 2800
--
compound: CCOC(=O)CC/C(C)=C/CC1Cc2cc(OCc3ccccc3)ccc2N(C)C1C (centres unmarked)
measure: EC50
assay-result: 1900

Please go through the list and note EC50 for each compound.
1. C/C(=C\CCc1ccc2cc(OCc3ccccc3)ccc2n1)CCC(=O)O
2. CCOC(=O)CC/C(C)=C/Cc1cc2cc(OCc3ccccc3)ccc2nc1C
3. C/C(=C\CCC1CCc2cc(OCc3ccccc3)ccc2N1C)CCC(=O)O (centres unmarked)

3600
2200
2900

====

biological target: hPPARγ (Homo sapiens); experiment: PPAR transactivation assay, human chimeric PPAR/Gal4 reporter luciferase system in Cos-7 cells (PPARγ); assay type: cell-based; conditions: COS-7; read-out: Efficacy (%) at 10 µmol/L PPARγ
Tick Met if Emax at 10 µM is 40% or greater. Tick Not met if Emax at 10 µM is less than 40%.

Illustrative cases are given below, each with its answer.
molecule: C/C(=C\CCC1CCc2cc(OCc3ccccc3)ccc2N1C)CCC(=O)O (stereo not shown) [Compound 6a]
class-assignment: Not met
--
molecule: CCOC(=O)CC/C(C)=C/Cc1cc2cc(OCc3ccccc3)ccc2nc1C [Compound 8b]
class-assignment: Not met
--
molecule: C/C(=C\Cc1cc2cc(OCc3ccccc3)ccc2nc1C)CCC(=O)O [Compound 9b]
class-assignment: Not met
--
molecule: CCOC(=O)CC/C(C)=C/CCC1CCc2cc(OCc3ccccc3)ccc2N1C (stereo not shown) [Compound 5a]
class-assignment: Met
--
molecule: CCOC(=O)CC/C(C)=C/CC1Cc2cc(OCc3ccccc3)ccc2N(C)C1C (stereo not shown) [Compound 5b]
class-assignment: Not met

Consider the additional molecule presented here.
Hi team, for C/C(=C\CC1Cc2cc(OCc3ccccc3)ccc2N(C)C1C)CCC(=O)O (stereo not shown) [Compound 6b] , is the recorded Emax at 10 µM at or above 40%? Not met

====

test system: hPPARα, hPPARβ/δ, and hPPARγ; test: PPAR transactivation assays, agonist profile over the three isoforms; settings: always with partial activity on the PPARγ isoform

compound: C/C(=C\CC1Cc2cc(OCc3ccccc3)ccc2N(C)C1C)CCC(=O)O (stereo not shown) [Compound 6b]
PPAR agonist activity profile: selective PPARα
//
compound: CCOC(=O)CC/C(C)=C/CC1Cc2cc(OCc3ccccc3)ccc2N(C)C1C (stereo not shown) [Compound 5b]
PPAR agonist activity profile: selective PPARα

====

Target: hPPARβ/δ (Homo sapiens)
Sequence (Q03181 171-441): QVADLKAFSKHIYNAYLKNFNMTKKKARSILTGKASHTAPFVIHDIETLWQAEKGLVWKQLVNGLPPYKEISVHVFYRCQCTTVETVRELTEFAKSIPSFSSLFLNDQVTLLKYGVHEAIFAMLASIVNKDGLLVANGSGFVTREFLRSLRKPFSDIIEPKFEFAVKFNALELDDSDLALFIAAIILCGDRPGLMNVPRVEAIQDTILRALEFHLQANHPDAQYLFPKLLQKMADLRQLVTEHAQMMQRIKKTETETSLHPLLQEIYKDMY
Experiment: PPAR transactivation assay, human chimeric PPAR/Gal4 reporter luciferase system in Cos-7 cells (PPARβ/δ)
Settings: human PPARβ/δ/Gal4, Cos-7 cells, concentration range 0.001-10 µmol/L; NA: not active
For each record, write down the corresponding EC50.
Answers are plain numbers, in µM.

Record excerpt, results attached:
molecule: CCOC(=O)CC/C(C)=C/Cc1cc2cc(OCc3ccccc3)ccc2nc1C [Compound 8b]
measure: EC50
assay-result: 7.9

molecule: CCOC(=O)CC/C(C)=C/CCc1ccc2cc(OCc3ccccc3)ccc2n1 [Compound 8a]
measure: EC50
assay-result: 2

molecule: CCOC(=O)CC/C(C)=C/CC1Cc2cc(OCc3ccccc3)ccc2N(C)C1C (centres unmarked) [Compound 5b]
measure: EC50
assay-result: 5.8

molecule: C/C(=C\CC1Cc2cc(OCc3ccccc3)ccc2N(C)C1C)CCC(=O)O (centres unmarked) [Compound 6b]
measure: EC50
assay-result: 5.8

Next molecule, please.
What measured EC50 goes with C/C(=C\CCc1ccc2cc(OCc3ccccc3)ccc2n1)CCC(=O)O [Compound 9a] ? 1.1

Ref: patent EP4635565A1
